test system: IL-17A-induced G-CSF production in human normal keratinocyte (NHK); test: NHK Assay: IL-17A-induced G-CSF production in human normal keratinocytes; format: cell-based; details: adult normal human keratinocytes, IL-17A 5 ng/mL, 24 h, simple average if tested more than once
metric: pIC50
API: returns pIC50 as number; meaning -log10 of concentration in mol/L.

These recorded examples may help you get a feel for the data.
CCOCC(NC(=O)CC1CC(F)(F)C1)c1cnn2cc([C@@H](NC(=O)c3nonc3C3CC3)C3CCC(F)(F)CC3)nc2c1 (single isomer, unassigned) [Example 527] | 6.96
Cc1nocc1C(=O)N[C@H](c1cn2ncc([C@H](NC(=O)CC(C)C(F)(F)F)C3CC3)cc2n1)C1CCC(F)(F)CC1 (single isomer, unassigned) [Example 124] | 6.16
CC(C)n1nccc1C(=O)N[C@H](c1cn2ncc(C(NC(=O)CC(C(F)(F)F)C(F)(F)F)C3CC3)cc2n1)C1CCC(F)(F)CC1 (single isomer, unassigned) [Example 10] | 7.36
N#CC1(C(NC(=O)CC2CC(F)(F)C2)c2cnn3cc([C@@H](NC(=O)c4nonc4OCC(F)F)C4CCC(F)(F)CC4)nc3c2)CC1 (single isomer, unassigned) [Example 430] | 4.92
[2H]C([2H])([2H])C([2H])([2H])n1nccc1C(=O)N[C@H](c1cn2ncc(C(NC(=O)CC3CC(F)(F)C3)C3CCC3)cc2n1)C1CCC(F)(F)CC1 (single isomer, unassigned) [Example 495] | 6.52

INPUT: Query: pIC50; subject: Cc1nonc1C(=O)N[C@H](c1cn2ncc([C@H](NC(=O)C(C)CC(F)(F)F)C3CC3)cc2n1)C1CCC(F)(F)CC1 (single isomer, unassigned) [Example 346]
OUTPUT: 6.36

INPUT: Query: pIC50; subject: O=C(CC1CC(F)(F)C1)N[C@@H](c1cnn2cc([C@@H](NC(=O)c3nonc3C(O)C3CC3)C3CCC(F)(F)CC3)nc2c1)C1CC1 (single isomer, unassigned) [Example 402]
OUTPUT: 6.96

INPUT: Query: pIC50; subject: CC(C)c1oncc1C(=O)N[C@H](c1cn2ncc([C@H](NC(=O)CCC(F)(F)F)C3CC3)cc2n1)C1CCC(F)(F)CC1 [Example 89]
OUTPUT: 7.19

###

test system: IL-17A-induced G-CSF production in human normal keratinocyte (NHK); assay: NHK Assay: IL-17A-induced G-CSF production in human normal keratinocytes; type: cell-based; details: adult normal human keratinocytes, IL-17A 5 ng/mL, 24 h, simple average if tested more than once
Quick reference: pIC50 of the listed items.
API: returns pIC50 as number; meaning -log10 of concentration in mol/L.

CC(C)n1nccc1C(=O)N[C@H](c1cn2ncc(C(NC(=O)CCC(F)(F)F)C3CC3)cc2n1)C1CCC(F)(F)CC1 (single isomer, unassigned) [Example 15] | 5.32

Kindly consider the entry below.
INPUT: Query: pIC50; subject: CC(C)n1nccc1C(=O)N[C@H](c1cn2ncc([C@H](NC(=O)CC(C)C(F)(F)F)C3CC3)cc2n1)C1CCC(F)(F)CC1 (single isomer, unassigned) [Example 122]
OUTPUT: 6.66

###

tested on: IL-17A-induced G-CSF production in human normal keratinocyte (NHK); test: NHK Assay: IL-17A-induced G-CSF production in human normal keratinocytes; type: cell-based; conditions: adult normal human keratinocytes, IL-17A 5 ng/mL, 24 h, simple average if tested more than once
metric: pIC50
API: returns pIC50 as number; meaning -log10 of concentration in mol/L.

CCC(CC(=O)N[C@@H](c1cnn2cc([C@@H](NC(=O)c3nonc3C)C3CCC(F)(F)CC3)nc2c1)C1CC1)CC(F)(F)F (single isomer, unassigned) [Example 342] | 5.85
Cc1nonc1C(=O)N[C@H](c1cn2ncc([C@H](NC(=O)C(F)CC3CC3)C3CC3)cc2n1)C1CCC(F)(F)CC1 (single isomer, unassigned) [Example 345] | 6.17
[2H]C([2H])([2H])C([2H])([2H])n1nccc1C(=O)N[C@H](c1cn2ncc(C(COC)NC(=O)CC3CC(F)(F)C3)cc2n1)C1CCC(F)(F)CC1 (single isomer, unassigned) [Example 522] | 5.44

INPUT: Query: pIC50; subject: Cc1nonc1C(=O)N[C@H](c1cn2ncc(C(CC3CCC3)NC(=O)CC3CC(F)(F)C3)cc2n1)C1CCC(F)(F)CC1 (single isomer, unassigned) [Example 438]
OUTPUT: 5.10

INPUT: Query: pIC50; subject: CC(C)n1nccc1C(=O)N[C@H](c1cn2ncc(C(NC(=O)CC(C)(C)O)C3CC3)cc2n1)C1CCC(F)(F)CC1 (single isomer, unassigned) [Example 136]
OUTPUT: 6.10

INPUT: Query: pIC50; subject: CC(C)n1nccc1C(=O)N[C@H](c1cn2ncc(C(CC#N)NC(=O)CC3CC(F)(F)C3)cc2n1)C1CCC(F)(F)CC1 (single isomer, unassigned) [Example 399]
OUTPUT: 7.03

INPUT: Query: pIC50; subject: O=C(CCC(F)(F)F)NC(c1cnn2cc([C@@H](NC(=O)c3cnn(CCC(F)(F)F)n3)C3CCC(F)(F)CC3)nc2c1)C1CC1 (single isomer, unassigned) [Example 18]
OUTPUT: 6.38

INPUT: Query: pIC50; subject: Cc1nocc1C(=O)N[C@H](c1cn2ncc([C@H](NC(=O)CC(C)C(F)(F)F)C3CC3)cc2n1)C1CCC(F)(F)CC1 (single isomer, unassigned) [Example 123]
OUTPUT: 6.89

INPUT: Query: pIC50; subject: CC(CC(=O)N[C@@H](c1cnn2cc([C@@H](NC(=O)c3conc3C3CC3)C3CCC(F)(F)CC3)nc2c1)C1CC1)C(F)(F)F (single isomer, unassigned) [Example 129]
OUTPUT: 6.60

INPUT: Query: pIC50; subject: O=C(CC1CC(F)(F)C1)NC(c1cnn2cc([C@@H](NC(=O)c3cnnn3CCC(F)(F)F)C3CCC(F)(F)CC3)nc2c1)C1CC1 (single isomer, unassigned) [Example 72]
OUTPUT: 7.07

###

target: IL-17A(FLAG-Tagged): IL-17RA(His-Tagged) (Homo sapiens, UniProt Q16552, K93Q); assay: IL-17A(FLAG-Tagged): IL-17RA(His-Tagged) Binding Disruption Eu-HTRF Assay; conditions: IL-17A/IL-17RA binding disruption, simple average if tested more than once
Sequence (Q16552 with tags, fused parts or gaps K93Q): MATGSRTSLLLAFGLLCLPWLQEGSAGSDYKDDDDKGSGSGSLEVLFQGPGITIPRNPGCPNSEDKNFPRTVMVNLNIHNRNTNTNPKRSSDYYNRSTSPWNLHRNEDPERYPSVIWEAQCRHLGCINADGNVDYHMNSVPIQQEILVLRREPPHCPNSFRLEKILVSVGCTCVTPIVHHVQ
Quick reference: IC50 of the listed items.
Give the number first and the unit second.

INPUT: Query: IC50; subject: CC(CC(=O)N[C@@H](c1cnn2cc([C@@H](NC(=O)c3conc3OCC(F)F)C3CCC(F)(F)CC3)nc2c1)C1CC1)C(F)(F)F (single isomer, unassigned) [Example 298]
OUTPUT: 250 nM

INPUT: Query: IC50; subject: O=C(CCC(F)F)N[C@@H](c1cnn2cc([C@@H](NC(=O)c3conc3COC(F)F)C3CCC(F)(F)CC3)nc2c1)C1CC1 [Example 287]
OUTPUT: 140 nM

INPUT: Query: IC50; subject: CCc1cnoc1C(=O)N[C@H](c1cn2ncc([C@H](NC(=O)CCC(F)(F)F)C3CC3)cc2n1)C1CCC(F)(F)CC1 [Example 470]
OUTPUT: 54 nM

INPUT: Query: IC50; subject: CCn1nccc1C(=O)N[C@H](c1cn2ncc([C@H](NC(=O)CCC(F)(F)F)C3CC3)cc2n1)C1CCC(F)(F)CC1 [Example 127]
OUTPUT: 40 nM

INPUT: Query: IC50; subject: CC(C)n1nccc1C(=O)N[C@@H](COC(C)(C)C)c1cn2ncc(C(NC(=O)CCC(F)(F)F)C3CC3)cc2n1 (single isomer, unassigned) [Example 317]
OUTPUT: 9900 nM

INPUT: Query: IC50; subject: CCOCC(NC(=O)CC1CC(F)(F)C1)c1cnn2cc([C@@H](NC(=O)c3nonc3C3CC3)C3CCC(F)(F)CC3)nc2c1 (single isomer, unassigned) [Example 526]
OUTPUT: 320 nM

###

biological target: IL-17A(FLAG-Tagged): IL-17RA(His-Tagged) (Homo sapiens, UniProt Q16552, K93Q); test: IL-17A(FLAG-Tagged): IL-17RA(His-Tagged) Binding Disruption Eu-HTRF Assay; conditions: IL-17A/IL-17RA binding disruption, simple average if tested more than once
metric: IC50 (nM)
The figure you give is taken to be in nM; do not add the unit.

These recorded examples may help you get a feel for the data.
CC(C)n1nccc1C(=O)N[C@H](c1cn2ncc([C@H](NC(=O)CO[C@@H](C)C(F)(F)F)C3CC3)cc2n1)C1CCC(F)(F)CC1 (single isomer, unassigned) | 170
O=C(CCC(F)(F)F)N[C@@H](c1cnn2cc([C@@H](NC(=O)c3ccnn3C(F)(F)F)C3CCC(F)(F)CC3)nc2c1)C1CC1 | 90
O=C(CCC(F)(F)F)N[C@@H](c1cnn2cc([C@@H](NC(=O)c3cnn(CCOC(F)F)n3)C3CCC(F)(F)CC3)nc2c1)C1CC1 | 120

INPUT: Query: IC50; subject: `CCc1oncc1C(=O)N[C@H](c1cn2ncc([C@H](NC(=O)CCC(F)(F)F)C3CC3)cc2n1)C1CCC(F)(F)CC1`
OUTPUT: 56

INPUT: Query: IC50; subject: `O=C(CCC(F)(F)F)N[C@@H](c1cnn2cc([C@@H](NC(=O)c3conc3COC(F)F)C3CCC(F)(F)CC3)nc2c1)C1CC1`
OUTPUT: 52
